system: MS2 coat protein; assay: apparent KD of MS2 coat protein; higher = weaker reporter binding; details: Eterna round: R107; input ligand: none
apparent KD of MS2 coat protein of 30 nM or higher: y. Under 30 nM: n.

// below: answered sequences
UGUAUGGACUGAAGGAGCGGAUGAUAAUCUGAGGAUCACCCAGGUAAUAAGGCGAAAGCCAUCCAGGUAGGUCGCAGUCCAUACU    y
GUGUGCGGCACGGCCGCCACUGCGGUGGUGUGACAUGAGGAUCACCCAUGUUGUCAUGCGGCCCUUAGGACCGGGUGGCGUGCAC [#1 Exclusion - Tryptophan B Attempt #17 (HarryS)]    y
AAUUCCUCACAUGAGGAUCACCCAUGUGAAGGAGCGCCGAAUAAGGCAGGUAGGUCGCACAUGGAAACCGCUACGAAAGUAGUAA [XArg-A 2 NuV2]    n
CGCACAUGAGGAUCACCCAUGUGAGGGCGGCGAGGACCGGUACGGCCGCCACUCGCAAAACAUGAGGAUCACCCAUGUGCCGCCG [SSTA DOUBLE!!! :-D #2]    y
ACGGACAUGAGGAUCACCCAUGUGGCCGAAGGAGCGGGAAUUAACCCAGGUAGGUCGCGGAAAUUUUUUAAAUUAUUUUAAUUUU [Same State - Arginine A]    n
UCGGGCAGAGCGGCCGCCACUGUUUGGCGUGCGGAUGAAGGAACAUGAGGAUCACCCAUGUUGAUUAGGACCGGGCUUGCGGAGA [kklmullin]    n
AUGUCGUUGAAUAUAGCGGCUUGGAGUGAUACCAGUAUGAUCCAAUACCCUUGGCAGCAUUACAUGAGGAUCACCCAUGUUCCAG [SSTheo A #24]    n
UGUACCAUGUCGGCCGCCACUCAUGAUAAGCAUGAGGAUCACCCAUGUAGCGUCAAAGACGCUAUGAGGACCGGGACAUGGUACU [TryBS Zipper 2]    y
GGGCGCUAUCCCGCGAGGGAUAGCGUUCAACGAGGACCGGUACGGCCGCCACUCGAACGAGUGGUGACAUGAGGAUCACCCAUGU [Iaa]    y
AAAGCCUUGCCCGGUGUUCCGAAAGUGGAAGGAGCGCACAUUGGUGCAGGUAGGUCGCCACAUGAGGAUCACCCAUGUCUAGGCU [Isbeat]    y

stdin: Dear colleague, could you confirm whether UCACAUGAGGAUCACCCAUGUGUCAGAGAAGGAGCGGCCGCAAGGCCAGGUAGGUCGCUCGGGUAUUGUGAGGUUCACCCGUGUG [#1 Exclusion - Arginine A Attempt #12 (Inspired by cyborg)] has apparent KD of MS2 coat protein at or above 30 nM?
stdout: y

stdin: Then what about the sequence GGCGCGGUGAUGGUAGCCGGACGCUAGGUACGAGGACCGGUACGGCCGCCACUCGGAGUCCUGGGACAUGAGGAUCACCCAUGUA [Same State Trp A GF18] ?
stdout: y
